Origin of values: patent US20240391954A1

Assign fraction unbound to each entry below.
Experiment: Plasma protein binding (Centrifree ultrafiltration)
Format: in vitro ADME
Conditions: 1.0 uM, read-out: Protein Binding 1.0 uM (converted)
Positions of bridges follow the written chain, without caps; N, C: chain ends. Non-standard residues stand in square brackets, D forms with d. Residues, ends and D or L forms follow the SMILES beside them. dPhe(4-F) = N[C@H](Cc1ccc(F)cc1)C(=O)O
Reply with just the number.

Return reported fraction unbound. Input molecule: CC(=O)N[C@@H](CCCNC(=N)N)C(=O)N[C@H]1CSSC[C@@H](C(N)=O)NC(=O)[C@@H](Cc2c[nH]c3ccccc23)NC(=O)[C@H](CCCNC(=N)N)NC(=O)[C@@H](Cc2ccccc2)NC(=O)[C@H](CCCNC(=N)N)NC(=O)[C@H](C)NC1=O [CTX-1268] (Ac-RCAR[dF]R[dW]C-NH2; disulfide 2-8)
0.42

Return reported fraction unbound. Input molecule: CC(=O)N[C@@H](CCCNC(=N)N)C(=O)N[C@H]1CSSC[C@@H](C(N)=O)NC(=O)[C@@H](Cc2c[nH]c3ccccc23)NC(=O)[C@H](CCCNC(=N)N)NC(=O)[C@@H](Cc2ccc(F)cc2)NC(=O)[C@H](CCCNC(=N)N)NC(=O)[C@@H](C)NC1=O [CTX-1236] (Ac-RC[dA]R[dPhe(4-F)]R[dW]C-NH2; disulfide 2-8)
0.51

###

Assign Emax to each entry below.
Molecular target: human MC4R (Homo sapiens)
Construct: host or cells: HEK-293 cells stably expressing the GScAMP22F split-luciferase cAMP sensor and hMC4R, G418 selection
Sequence (P32245 whole entry): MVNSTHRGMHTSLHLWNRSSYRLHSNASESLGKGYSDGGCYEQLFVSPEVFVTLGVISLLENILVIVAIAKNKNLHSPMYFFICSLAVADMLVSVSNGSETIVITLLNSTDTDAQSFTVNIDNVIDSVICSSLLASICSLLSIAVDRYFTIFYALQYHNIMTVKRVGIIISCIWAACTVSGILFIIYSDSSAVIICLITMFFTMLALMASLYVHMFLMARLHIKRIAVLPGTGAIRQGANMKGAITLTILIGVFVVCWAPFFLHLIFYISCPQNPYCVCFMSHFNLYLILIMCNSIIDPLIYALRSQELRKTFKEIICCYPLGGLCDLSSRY
Assay: split-luciferase cAMP sensor assay, agonist mode (measurement window 1), hMC4R
Type: cell-based
Conditions: agonist mode, hMC4R stable cell line; read-out: MC4R cAMP % max activation
Positions of bridges follow the written chain, without caps; N, C: chain ends. Non-standard residues stand in square brackets, D forms with d. Residues, ends and D or L forms follow the SMILES beside them. dPhe(4-Br) = N[C@H](Cc1ccc(Br)cc1)C(=O)O; Tic = O=C(O)[C@@H]1Cc2ccccc2CN1; Nle = CCCC[C@H](N)C(=O)O
Numeric answer only, unit % assumed.

Tell me its Emax on human MC4R (Homo sapiens): CC(=O)N[C@@H](CCCNC(=N)N)C(=O)N[C@H]1CSSC[C@@H](C(N)=O)NC(=O)[C@@H](Cc2c[nH]c3ccccc23)NC(=O)[C@@H](CCCNC(=N)N)NC(=O)[C@@H](Cc2ccccc2)NC(=O)[C@H](CCCNC(=N)N)NC(=O)[C@@H](C)NC1=O [CTX-1283] (Ac-RC[dA]R[dF][dR][dW]C-NH2; disulfide 2-8)
55

Tell me its Emax on human MC4R (Homo sapiens): CC(=O)N[C@@H](CCCNC(=N)N)C(=O)N[C@H]1CSSC[C@@H](C(N)=O)NC(=O)[C@@H]2Cc3ccccc3CN2C(=O)[C@H](CCCNC(=N)N)NC(=O)[C@@H](Cc2ccc(Br)cc2)NC(=O)[C@H](CCCNC(=N)N)NC(=O)[C@@H](C)NC1=O [CTX-1259] (Ac-RC[dA]R[dPhe(4-Br)]R[Tic]C-NH2; disulfide 2-8 (inferred))
70

Tell me its Emax on human MC4R (Homo sapiens): CCCC[C@H](NC(=O)[C@H](CCCNC(=N)N)NC(C)=O)C(=O)N[C@H]1CSSC[C@@H](C(N)=O)NC(=O)[C@H](Cc2c[nH]c3ccccc23)NC(=O)[C@H](CCCNC(=N)N)NC(=O)[C@@H](Cc2ccc(OC)cc2)NC(=O)[C@H](CCCNC(=N)N)NC1=O [CTX-1614] (Ac-R[Nle]CR[dY](Me)RWC-NH2; disulfide 3-8 (inferred))
41
